Data provenance: patent US8772480B2

Recorded IC50, one value per entry.
- Tested on: phosphorylation of Akt at Serine 473 in U87 MG cells
- ASSAY NOTES: cells
- CONDITION CONTEXT: Homo sapiens, U-87 MG, 2 h, read-out: U87Cell IC50, pAkt (Ser 473), U87 MG cells, two hours with compound
Lab book: enter the figure in nM, no units written.

Worked cases, IC50 given:
COc1cc(Nc2ncc(C(C)(C)O)cc2-c2nc(C)nc(N)n2)cnc1Cl [Example 342]	8
COc1ncc(Nc2ncc(C(C)(C)O)cc2-c2nc(C)nc(N)n2)cc1C [Example 354]	37
COc1ncc(Nc2ncc(CN3CCN(C(=O)N(C)C)CC3)cc2-c2nc(C)nc(N)n2)cc1F [Example 159]	11
Cc1nc(N)nc(-c2cc([C@@H](C)N3CCOCC3)cnc2Nc2cnc(Cl)c(NS(=O)(=O)N(C)C)c2)n1 [Example 373]	1

Q: Form field: reported IC50 of Cc1nc(N)nc(-c2cc(CN3CCN(S(C)(=O)=O)CC3)cnc2Nc2ccc3ccncc3c2)n1 [Example 326]
Ans: 57

Q: # iterate: COc1ccc(Nc2ncc(CNC(C)(C)C)cc2-c2nc(C)nc3[nH]cnc23)cn1 [Example 134]
Ans: 1250

Q: And then Cc1nc(N)nc(-c2cccnc2Nc2ccc(N)nc2)n1 [Example 50] , what is it?
Ans: 3070

Q: Same read-out for COc1cncc(Nc2ncccc2-c2nc(C)nc3[nH]cnc23)c1 [Example 183] ?
Ans: 446
